system: UACC-62; assay: NCI tumour cell line growth inhibition, 48 h
The source made the active and inactive calls. Rule as the data show it: active = GI50 up to about 1.1 µM and inactive = higher.
QUANTITY KIND: GI50

Data request: For the molecule shown here, "Cc1ccc(/C=N/NS(=O)(=O)c2ccccc2)c(C)c1" , give the reported GI50.
Data returned: > 100 µM (inactive)

Data request: For the molecule shown here, "Cc1cc(C)nc(NS(=O)(=O)c2ccc(Nc3c4ccc(Cl)cc4nc4c(C(=O)Nc5ccc(S(=O)(=O)N=C(N)N)cc5)cccc34)cc2)n1" , give the reported GI50.
Data returned: 70.8 µM (inactive)

Data request: For the molecule shown here, CC(=O)c1ccc(OCC(O)CO)cc1 (centres undefined) , give the reported GI50.
Data returned: > 100 µM (inactive)

Data request: For the molecule shown here, Cc1cc(Cl)ccc1NC(=O)CCCC(=O)C1CCCC1=O (centres undefined) , give the reported GI50.
Data returned: > 100 µM (inactive)

Data request: For the molecule shown here, "O=C1C(c2ccccc2)=C(c2ccccc2)C1(Cl)Cl" , give the reported GI50.
Data returned: 1.86 µM (inactive)

Data request: For the molecule shown here, "COc1ccc2c(c1)CC[C@@H]1[C@@H]2CC[C@]2(C)C(=O)/C(=C/c3ccc(O)c(OC)c3)C[C@@H]12" , give the reported GI50.
Data returned: 68.5 µM (inactive)

Data request: For the molecule shown here, CC(CC(C)[C@H]1CCC2[C@H]3C(CC[C@@]21C)[C@@]1(C)CCC(O)C[C@H]1C[C@@H]3O)C(=O)O (some centres undefined) , give the reported GI50.
Data returned: > 100 µM (inactive)

Data request: For the molecule shown here, COc1cc(/C=C2\C(=O)N(c3cccc([N+](=O)[O-])c3)C(c3ccccc3)S2(=O)=O)cc(OC)c1OC (centres undefined) , give the reported GI50.
Data returned: 80.7 µM (inactive)

Data request: For the molecule shown here, "CCN(CC)C(=O)N[C@@H](CC(C)C)C(=O)NC" , give the reported GI50.
Data returned: > 100 µM (inactive)

Data request: For the molecule shown here, N=C1NC(c2ccc(Cl)cc2)=CC(c2cccc(Cl)c2)S1 (centres undefined) , give the reported GI50.
Data returned: 18.8 µM (inactive)

Data request: For the molecule shown here, "C=CC(C)(C)/C=C/c1ccc(O)cc1" , give the reported GI50.
Data returned: 42.7 µM (inactive)

Data request: For the molecule shown here, "COC(=O)[C@@H](OC(C)=O)[C@@H](OC(C)=O)c1nnc2ccc(Cl)nn12" , give the reported GI50.
Data returned: > 100 µM (inactive)

Data request: For the molecule shown here, "COC(=O)c1ccc(NCc2cc(O)ccc2O)cc1O" , give the reported GI50.
Data returned: 13.1 µM (inactive)

Data request: For the molecule shown here, "CC1=NN2C(=N)/C(=C/c3ccco3)C(=O)N=C2S1" , give the reported GI50.
Data returned: > 100 µM (inactive)

Data request: For the molecule shown here, CCOC(=O)C12CCC(=O)C=C1[C@@H](C)C(=O)CC2 (some centres undefined) , give the reported GI50.
Data returned: > 100 µM (inactive)

Data request: For the molecule shown here, "c1ccc2c(c1)Nc1nc3nonc3nc1N2" , give the reported GI50.
Data returned: > 100 µM (inactive)

Data request: For the molecule shown here, "O=Nn1c2ccccc2c2ccccc21" , give the reported GI50.
Data returned: 45.7 µM (inactive)

Data request: For the molecule shown here, "O=C(OCCN=C1c2ccccc2CCc2ccccc21)c1ccccc1" , give the reported GI50.
Data returned: > 100 µM (inactive)

Data request: For the molecule shown here, O=C(O)CCS/C(=C\C(SCCC(=O)O)c1ccc(Cl)cc1)c1ccc(Cl)cc1 (centres undefined) , give the reported GI50.
Data returned: 18.4 µM (inactive)

Data request: For the molecule shown here, C[N+](C)(C)CC1CCC/C1=N\OC(=O)c1ccccc1 (centres undefined) , give the reported GI50.
Data returned: > 100 µM (inactive)

Data request: For the molecule shown here, "Cc1ccnc(NC(=S)Nc2ccccc2Cl)c1" , give the reported GI50.
Data returned: 63.1 µM (inactive)

Data request: For the molecule shown here, CC1(C)OC2C(O)CN3CCS[C@H]3C2O1 (some centres undefined) , give the reported GI50.
Data returned: > 100 µM (inactive)

Data request: For the molecule shown here, "COc1cc([C@@H]2c3cc4c(cc3[C@@H](Nc3ccc(NC(=O)c5cc([N+](=O)[O-])cn5C)cc3)[C@H]3COC(=O)[C@H]23)OCO4)cc(OC)c1O" , give the reported GI50.
Data returned: 0.0612 µM (active)

Data request: For the molecule shown here, CN(C)/N=C1\CC(c2ccccc2)C(C#N)(C#N)C1(C#N)C#N (centres undefined) , give the reported GI50.
Data returned: 16 µM (inactive)
